Listing of entries alongside the reported log10 of MIC.
test system: Porphyromonas gingivalis; experiment: Antimicrobial activity against Porphyromonas gingivalis ATCC 33277 by disk diffusion method; assay type: functional
MEASUREMENT TYPE: log10 of MIC (log10 of the value in µg/mL)

{"STRUCTURE SMILES STRING": "O=c1c(O)c(-c2ccc(O)cc2)oc2cc(O)cc(O)c12", "OBSERVED": 1.30}
{"STRUCTURE SMILES STRING": "O=c1oc2c(O)c(O)cc3c(=O)oc4c(O)c(O)cc1c4c23", "OBSERVED": 3.10}
{"STRUCTURE SMILES STRING": "CC1(C)CC[C@]2(C(=O)O)CC[C@]3(C)C(=CC[C@@H]4[C@@]5(C)CC[C@H](O)C(C)(C)[C@@H]5CC[C@]43C)[C@@H]2C1", "OBSERVED": 2.80}
{"STRUCTURE SMILES STRING": "O=C(O)c1cc(O)c(O)c(O)c1", "OBSERVED": 2.19}
{"STRUCTURE SMILES STRING": "O=c1c(O)c(-c2cc(O)c(O)c(O)c2)oc2cc(O)cc(O)c12", "OBSERVED": 1.30}
{"STRUCTURE SMILES STRING": "C[n+]1cc2c3c(ccc2c2ccc4cc5c(cc4c21)OCO5)OCO3", "OBSERVED": 0.30}
{"STRUCTURE SMILES STRING": "Cc1cc(=O)c2c(O)c([C@@H]3O[C@H](CO)[C@@H](O)[C@H](O)[C@H]3O)c(O)cc2o1", "OBSERVED": 2.80}
{"STRUCTURE SMILES STRING": "COc1cc(O)c2c(=O)c(O)c(-c3ccc(O)cc3)oc2c1", "OBSERVED": 2.80}
